Record form. Attribute: Km. Fill in for each entry.
Substrate: O=C(O)C(=O)C[C@@H](O)CO
Method summary: purified protein, by the assay type
Set-up: coupled assay with PpKGSADH, NADH formation at 340 nm, Michaelis-Menten fit, 25 °C, pH 7.5
Experimental parameters: pH 7.5; 25.0 °C
Give bare numbers, in mM.

Query :: Fill blank: measured Km of the protein PxD-KdpD (Paraburkholderia xenovorans LB400) (protein, C-terminal His6 tag (kept), codon-optimised synthetic gene, E. coli BL21(DE3), HisTrap purified) MSATSPSSFLPDDLGQALLVGRVWRKTDQHEGPSVVVVRGGEVFDITATVPTTADLFDREDAAPLARTAPGVSLGAVAQLIASNLPGAAAPALRLLAPCDVQAIKACGVTFAVSLIERVIEEQAAGDPAKAKEVRDTIASMIGTDLSKIEPGSDAAMKLKAELERRGAWSQYMEVGIGPDAEVFSKSQPMSAVGFGADVGLLAASTWNNPEPEIVLAVNSRGEIVGATLGNDVNLRDIEGRSALLLGKCKDNNGSCAIGPFVRLFDESFSLDSVRTASVALRVEGADDGFVLEGVSHMSEISRDPANLVAQTWGRHHQYPDGFMLFLGTMFSPIKDRDAPGAGFTHHLGDLVTISTPQLGALTNTVRLSTEIEPWTFGVRALYRNLAARGLLASA is ____.
Result :: 5.08

For every item in the list below, what is its measured Km?
1. HsD-KdpD (Herbaspirillum seropedicae SmR1) (protein, C-terminal His6 tag (kept), pET vector, E. coli BL21(DE3), HisTrap purified) MAHTFSLQAHLPEDHAQATLIGRIWQPGVGPVLVRIDADGAYDLTLIAATSSELLELDNPAAAVRSATNMTRIATLQELLDNADAAGRDTSRPWLLAPIDLQAVKASGVTFVASMLERVIEEQARGDAGKAESVRKAITAVIGDNLSSVVPGSPEAARLKEVLLDQGVWSQYLEVGIGPDAEIFTKAQPMSSVGLGDEVGIHPKSAWNNPEPEIVLAINSRGKVVGATLGNDVNLRDFEGRSALLLGKAKDNNASCAVGPFIRLFDANFSIDDVRRAELTMRVDGTEGFTLKGSSSMSMISRDPLQLVEHAIGPNHQYPDGLVLFLGTMFAPTQDRFGPGQGFTHQVADIVTISTPKLGALVNTVNFSDQTAPWTFGLTALFKNLADRKLI
2. CcD-KdpD2 (Caulobacter vibrioides NA1000) (protein, C-terminal His6 tag (kept), pET vector, E. coli BL21(DE3), HisTrap purified) MGVSEFLPEDWKAATLLGRIDFGEGPTPVLVRGGRVEDVSKIAPTVADLMNAFQPGAVIPRGEDKGPLEALDIRPVWEDPDGAAPVKLLAPVDLQCLKAAGVTFAVSTLERVIEERARGDAGEALKIRTLLAERMGGDLKSVEPGSQGAQRLKDALIADGLWSQYLEVAIGPDAEIFTKGPTLSSMGWGDQVGVRYDSHWNNPEPEVVLLCDGSGLIRGAALGNDVNLRDFEGRSALLLSKAKDNNASCAIGPFFRLFDETFGLDDVRSAEVELKITGRDNFVLDGKSNMSLISRDPAVLAGQAYGKQHQYPDGFALFLGTMFAPIQDRDTPGQGFTHKVGDRVRVSTPKLGVLENEVTTCDKAKPWTFGISALIRNLAGRGLL

Result ::
1. 3.18
2. 3.96

Query :: Fill blank: measured Km of the protein CnD-KdpD (Cupriavidus necator H16) (protein, C-terminal His6 tag (kept), pET vector, E. coli BL21(DE3), HisTrap purified; strain given inconsistently (H16 gDNA vs N-1)) MALPLTLSATQTLPADGLAGTLVGRAWIPASDGAPAGPAVVVLRPAGVFDISDVAPTMSTLLEQGDPVTVVHNTPGRWIGKLDDLLANTADPRGSDSVARLLAPCDLQVIKAAGVTFAGSLVERVIEEQTKGDPQGAAEVRNRIQALVGERLSRIRPGSREAGELKALLIEHGMWSQYLEVGIGPDAEIFTKAPLLSALGTGTEIGLHPGSAWNNPEPEIVLAINSRGDVLGATLGNDVNLRDFEGRSALLLGKAKDNNGSCAIGPFLRLFDQSLSLDDVRRATVDLRVDGLDGFVLSGTSSMDQITRDPLELAEQVMGATHQYPDGAMLFLGTLFAPVEDRDTAGGGFTHKDGDLVTISSRQLGSLVNRVGRSDRIAPWTFGVRALMANLAARGHTTF is ____.
Result :: 2.49
